The measured values listed here are drawn from patent US20230219986A1.

- System tested: wild-type EGFR (Homo sapiens, UniProt P00533)
- Construct: purchased Signalchem
- Sequence (P00533 25-1210): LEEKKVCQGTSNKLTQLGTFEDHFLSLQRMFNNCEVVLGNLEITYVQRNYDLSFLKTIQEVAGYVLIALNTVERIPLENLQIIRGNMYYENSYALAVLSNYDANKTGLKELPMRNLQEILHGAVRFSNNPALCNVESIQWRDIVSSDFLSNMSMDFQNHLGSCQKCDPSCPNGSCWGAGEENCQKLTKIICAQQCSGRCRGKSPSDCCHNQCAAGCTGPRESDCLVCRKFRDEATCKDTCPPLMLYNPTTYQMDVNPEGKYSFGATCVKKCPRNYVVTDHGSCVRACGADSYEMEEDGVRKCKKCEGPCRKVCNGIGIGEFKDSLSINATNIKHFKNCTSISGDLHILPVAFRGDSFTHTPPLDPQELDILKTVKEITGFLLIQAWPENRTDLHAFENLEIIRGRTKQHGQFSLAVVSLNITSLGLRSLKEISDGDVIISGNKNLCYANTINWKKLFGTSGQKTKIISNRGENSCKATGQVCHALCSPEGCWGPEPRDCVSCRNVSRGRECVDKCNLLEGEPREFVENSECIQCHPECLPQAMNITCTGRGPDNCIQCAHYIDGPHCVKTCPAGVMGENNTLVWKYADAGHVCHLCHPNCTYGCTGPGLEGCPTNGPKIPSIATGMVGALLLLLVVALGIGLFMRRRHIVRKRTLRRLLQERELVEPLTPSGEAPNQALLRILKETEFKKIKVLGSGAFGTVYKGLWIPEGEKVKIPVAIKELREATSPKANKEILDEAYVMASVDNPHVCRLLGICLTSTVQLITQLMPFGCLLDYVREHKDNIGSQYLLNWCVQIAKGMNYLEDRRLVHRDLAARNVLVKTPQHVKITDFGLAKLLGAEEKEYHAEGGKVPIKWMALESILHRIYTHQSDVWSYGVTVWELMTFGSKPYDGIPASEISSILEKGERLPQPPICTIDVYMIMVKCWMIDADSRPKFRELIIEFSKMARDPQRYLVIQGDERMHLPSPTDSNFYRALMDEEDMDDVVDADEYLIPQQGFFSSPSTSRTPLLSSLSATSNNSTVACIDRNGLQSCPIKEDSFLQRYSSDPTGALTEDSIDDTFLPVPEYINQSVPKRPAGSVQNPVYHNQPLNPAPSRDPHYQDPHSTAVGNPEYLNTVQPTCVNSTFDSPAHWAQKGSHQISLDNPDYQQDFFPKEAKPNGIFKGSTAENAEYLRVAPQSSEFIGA
- Experiment summary: Enzymology experiment in vitro (HTRF/FRET kinase activity), wild-type EGFR
- Assay type: biochemical
- Details: HTRF KinEASE-TK, read-out: EGFR (WT) IC50
- Description: 1. Experimental Materials HTRF KinEASE-TK kit detection reagent, purchased from Cisbio 1) 10 nL of gradient diluted compound was transferred into a 384-well experimental plate using Echo 550 (Labcyte). 2) 5 μL of 2×EGFR enzyme solution was added to the 384-well experimental plate and incubated at room temperature for 10 minutes. 3) 5 μL of 2× substrate solution containing polypeptide and ATP was added to the 384-well experimental plate and incubated at room temperature for 40 minutes. […]
pIC50: −log10 of the molar value.
Property label: pIC50

Completed entries (count: 3):
Compound | pIC50
COc1cc(N2CCOCC2)c(-c2cnn(C)c2)cc1Nc1nc(Nc2ccccc2P(C)(C)=O)c2ccccc2n1 | 5.90
COc1cc(N2CCOC(CO)C2)c(-c2cnn(C)c2)cc1Nc1ncc(Br)c(Nc2ccc3nccnc3c2P(C)(C)=O)n1 (stereo not shown) | 8.78
COc1cc(N2CCC(N3CCN(C)CC3)CC2)c(-c2cnn(C)c2)cc1Nc1ncc(F)c(Nc2ccc3nccnc3c2P(C)(C)=O)n1 | 8.39

(P) COc1cc(N2CC(C)OC(C)C2)c(-c2cnn(C)c2)cc1Nc1ncc(Br)c(Nc2ccc3nccnc3c2P(C)(C)=O)n1 (single isomer, unassigned) [155a]
(Q) COc1cc(N2CCC3(CC2)CN(C)CCO3)c(-c2cnn(C)c2)cc1Nc1ncc(Br)c(Nc2cc3c(cc2N(C)S(C)(=O)=O)CC3)n1
(R) [2H]C([2H])([2H])N(c1cc(OC)c(Nc2ncc(C)c(Nc3ccc4nccnc4c3P(C)(C)=O)n2)cc1-c1cnn(C)c1)C([2H])([2H])[2H]
**Query** Let's sort these by pIC50, smallest first. Go ahead? # list labels per requested ordering
**Result** P, Q, R

* * *

- System tested: L858R/T790M/C797S triple mutant EGFR (Homo sapiens, UniProt P00533, C797S/L858R/T790M)
- Construct: purchased Signalchem
- Experiment summary: Enzymology experiment in vitro (HTRF/FRET kinase activity), L858R/T790M/C797S triple mutant EGFR
- Type: biochemical
- Details: HTRF KinEASE-TK, read-out: EGFR (L858R/T790M/C797S) IC50
pIC50: −log10 of the molar value.
Property label: pIC50

Compound | pIC50
COc1cc(N2CCC3CCN(CC4CC4)C3C2)c(-c2cnn(C)c2)cc1Nc1ncc(Br)c(Nc2ccc3nccnc3c2P(C)(C)=O)n1 (stereo not drawn) [compound 227] | 9.23
COc1cc(N2CCC(N3CCC(OC)CC3)CC2)c(-c2cnn(C)c2)cc1Nc1ncc(Br)c(Nc2ccc3nccnc3c2P(C)(C)=O)n1 | 9.40

(P) COc1cc(N(C)CCN(C)C)c(-c2cnn(C)c2)cc1Nc1ncc(Br)c(Nc2ccc3nccnc3c2P(C)(C)=O)n1
(Q) COc1cnc(-c2cnn(C)c2)cc1Nc1ncc(C)c(Nc2ccc3nccnc3c2P(C)(C)=O)n1
(R) COc1cc(N2CCC3(CCN(CCF)CC3)CC2)c(-c2cnn(C)c2F)cc1Nc1ncc(Br)c(Nc2ccc3nccnc3c2P(C)(C)=O)n1
**Query** Let's sort these by pIC50, smallest first. Go ahead? # list labels per requested ordering
**Result** Q, R, P

* * *

- System tested: L858R/T790M/C797S triple mutant EGFR (Homo sapiens, UniProt P00533, C797S/L858R/T790M)
- Construct: purchased Signalchem
- Experiment summary: Enzymology experiment in vitro (HTRF/FRET kinase activity), L858R/T790M/C797S triple mutant EGFR
- Type: biochemical
- Details: EGFR (L858R/T790M/C797S) IC50(nM), HTRF KinEASE-TK
Property label: IC50 (nM)
A number alone suffices; assume nM.

Compound | Result unit | Measured
COCCN1CCN(C2CCN(c3cc(OC)c(Nc4ncc(Br)c(Nc5ccc6nccnc6c5P(C)(C)=S)n4)cc3-c3cnn(C)c3)CC2)CC1 | nM | 0.58

**Query** Which IC50 value belongs to CCOP(C)(=O)c1c(Nc2nc(Nc3cc(-c4cnn(C)c4)c(N4CCOCC4)c(F)c3OC)ncc2Br)ccc2nccnc12 (centres unmarked) ?
**Result** 11.4

* * *

- System tested: L858R/T790M/C797S triple mutant EGFR (Homo sapiens, UniProt P00533, C797S/L858R/T790M)
- Construct: purchased Signalchem
- Experiment summary: Enzymology experiment in vitro (HTRF/FRET kinase activity), L858R/T790M/C797S triple mutant EGFR
- Type: biochemical
- Details: HTRF KinEASE-TK, read-out: EGFR (L858R/T790M/C797S) IC50
Property label: IC50 (nM)

Completed entries (count: 2):
Mol | IC50, nM
CN(C)c1c(-c2cnn(C)c2)cc(Nc2ncc(Br)c(Nc3ccc4nccnc4c3P(C)(C)=O)n2)c2c1CCO2 | 0.06
COc1cc(N2CCC(N3CCN(CC(F)F)CC3)CC2)c(-c2cnn(C)c2)cc1Nc1ncc(Br)c(Nc2ccc3nccnc3c2P(C)(C)=O)n1 | 0.37

(P) COc1cc(N2CCO[C@@H](C)C2)c(-c2cnn(C)c2)cc1Nc1ncc(Br)c(Nc2ccc3nccnc3c2P(C)(C)=O)n1
(Q) Cn1cc(-c2cc(Nc3ncc(Br)c(Nc4ccc5nccnc5c4P(C)(C)=O)n3)c3c(c2N2CCOCC2)CCO3)cn1
(R) COc1cc(N2CCC(F)CC2)c(-c2cnn(C)c2)cc1Nc1ncc(Br)c(Nc2ccc3nccnc3c2P(C)(C)=O)n1
(S) COc1c(Nc2ncc(Br)c(Nc3ccc4nccnc4c3P(C)(C)=O)n2)cc(-c2cnn(C)c2)c(N2CCC(N3CCN(C)CC3)CC2)c1F
**Query** Let's sort these by IC50, smallest first. Go ahead? # list labels per requested ordering
**Result** Q, S, P, R
(Q: 0.08 nM, S: 0.18 nM, P: 0.45 nM, R: 1.2 nM)

* * *

- System tested: Ba/F3 De119/T790M/C797S EGFR triple mutant cell line (Homo sapiens, UniProt P00533, T790M/C797S, cells depend on it, form not given)
- Sequence (P00533 with tags, fused parts or gaps DEL746-750/T790M/C797S, form open): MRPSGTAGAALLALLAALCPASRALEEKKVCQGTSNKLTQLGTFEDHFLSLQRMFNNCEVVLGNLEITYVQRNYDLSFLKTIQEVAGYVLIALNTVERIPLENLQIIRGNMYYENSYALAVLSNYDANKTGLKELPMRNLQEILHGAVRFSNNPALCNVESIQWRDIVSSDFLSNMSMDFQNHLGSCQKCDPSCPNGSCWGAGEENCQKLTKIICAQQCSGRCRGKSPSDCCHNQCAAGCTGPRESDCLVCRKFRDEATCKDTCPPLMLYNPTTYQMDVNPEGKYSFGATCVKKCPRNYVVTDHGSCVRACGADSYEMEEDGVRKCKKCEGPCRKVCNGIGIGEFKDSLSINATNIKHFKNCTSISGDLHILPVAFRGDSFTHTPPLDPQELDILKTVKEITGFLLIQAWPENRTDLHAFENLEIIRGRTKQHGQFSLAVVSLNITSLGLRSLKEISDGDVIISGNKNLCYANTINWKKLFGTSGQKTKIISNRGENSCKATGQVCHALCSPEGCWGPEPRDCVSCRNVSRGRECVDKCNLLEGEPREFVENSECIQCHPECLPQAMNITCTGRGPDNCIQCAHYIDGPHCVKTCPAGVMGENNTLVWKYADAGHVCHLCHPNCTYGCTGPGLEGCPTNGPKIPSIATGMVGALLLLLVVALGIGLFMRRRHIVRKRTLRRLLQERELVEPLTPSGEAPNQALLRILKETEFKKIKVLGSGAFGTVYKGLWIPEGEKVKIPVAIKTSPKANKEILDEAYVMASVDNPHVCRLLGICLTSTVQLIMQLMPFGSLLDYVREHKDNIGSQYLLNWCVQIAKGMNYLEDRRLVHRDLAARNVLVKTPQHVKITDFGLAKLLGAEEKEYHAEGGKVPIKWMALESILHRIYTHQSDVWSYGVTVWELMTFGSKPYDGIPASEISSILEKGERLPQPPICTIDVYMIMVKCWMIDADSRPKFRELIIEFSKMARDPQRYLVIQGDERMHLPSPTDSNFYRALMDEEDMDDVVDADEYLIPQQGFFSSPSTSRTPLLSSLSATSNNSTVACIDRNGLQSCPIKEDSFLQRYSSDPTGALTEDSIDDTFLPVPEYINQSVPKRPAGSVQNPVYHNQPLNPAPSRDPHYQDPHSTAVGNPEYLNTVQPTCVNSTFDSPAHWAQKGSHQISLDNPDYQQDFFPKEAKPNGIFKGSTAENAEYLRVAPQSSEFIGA
- Experiment summary: Cell proliferation inhibition experiment (CellTiter-Glo), Ba/F3 De119/T790M/C797S
- Format: cell-based
- Details: Ba/F3 Del19/T790M/C797S EGFR triple mutant cells, 72 hours, Cell Titer-Glo; read-out: Ba/F3 (Del19/T790M/C797S) IC50
Property label: GI50 (nM)

Completed entries (count: 4):
Compound | Result unit | Measured
COc1cc(N2CCOCC2)c(-c2cnn(C)c2)cc1Nc1ncc(Br)c(Nc2ccc3nccnc3c2N(C)S(C)(=O)=O)n1 | nM | 2.13
COc1cc(N2CC(C)OC(C)C2)c(-c2cnn(C)c2)cc1Nc1ncc(Br)c(Nc2ccc3nccnc3c2P(C)(C)=O)n1 (single isomer, unassigned) [155a] | nM | 2.98
COc1cc(N2CCC(OC)C2)c(-c2cnn(C)c2)cc1Nc1ncc(Br)c(Nc2ccc3nccnc3c2P(C)(C)=O)n1 (stereo not drawn) | nM | 2.86
COc1cc(N2CC[C@@H]3CCN(CC4CC4)[C@@H]3C2)c(-c2cnn(C)c2)cc1Nc1ncc(Br)c(Nc2ccc3nccnc3c2P(C)(C)=O)n1 (single isomer, unassigned) [234b] | nM | 2.52

(a) COc1cc(N2CCC3(CC2)CN(C(C)C)CCO3)c(-c2cnn(C)c2)cc1Nc1ncc(Br)c(Nc2ccc3nccnc3c2P(C)(C)=O)n1
(b) COc1cc(N2CCC3(CCN(CC(F)F)CC3)CC2)c(-c2cnn(C)c2)cc1Nc1ncc(Br)c(Nc2ccc3nccnc3c2P(C)(C)=O)n1
**Query** Kindly compare a with b and tell me which has the lower GI50 figure. Refer to your chosen item by its label in the answer.
**Result** b

* * *

- System tested: Ba/F3 L858R/T790M/C797S EGFR triple mutant cell line (Homo sapiens, UniProt P00533, T790M/C797S/L858R, cells depend on it)
- Sequence (P00533 whole entry T790M/C797S/L858R): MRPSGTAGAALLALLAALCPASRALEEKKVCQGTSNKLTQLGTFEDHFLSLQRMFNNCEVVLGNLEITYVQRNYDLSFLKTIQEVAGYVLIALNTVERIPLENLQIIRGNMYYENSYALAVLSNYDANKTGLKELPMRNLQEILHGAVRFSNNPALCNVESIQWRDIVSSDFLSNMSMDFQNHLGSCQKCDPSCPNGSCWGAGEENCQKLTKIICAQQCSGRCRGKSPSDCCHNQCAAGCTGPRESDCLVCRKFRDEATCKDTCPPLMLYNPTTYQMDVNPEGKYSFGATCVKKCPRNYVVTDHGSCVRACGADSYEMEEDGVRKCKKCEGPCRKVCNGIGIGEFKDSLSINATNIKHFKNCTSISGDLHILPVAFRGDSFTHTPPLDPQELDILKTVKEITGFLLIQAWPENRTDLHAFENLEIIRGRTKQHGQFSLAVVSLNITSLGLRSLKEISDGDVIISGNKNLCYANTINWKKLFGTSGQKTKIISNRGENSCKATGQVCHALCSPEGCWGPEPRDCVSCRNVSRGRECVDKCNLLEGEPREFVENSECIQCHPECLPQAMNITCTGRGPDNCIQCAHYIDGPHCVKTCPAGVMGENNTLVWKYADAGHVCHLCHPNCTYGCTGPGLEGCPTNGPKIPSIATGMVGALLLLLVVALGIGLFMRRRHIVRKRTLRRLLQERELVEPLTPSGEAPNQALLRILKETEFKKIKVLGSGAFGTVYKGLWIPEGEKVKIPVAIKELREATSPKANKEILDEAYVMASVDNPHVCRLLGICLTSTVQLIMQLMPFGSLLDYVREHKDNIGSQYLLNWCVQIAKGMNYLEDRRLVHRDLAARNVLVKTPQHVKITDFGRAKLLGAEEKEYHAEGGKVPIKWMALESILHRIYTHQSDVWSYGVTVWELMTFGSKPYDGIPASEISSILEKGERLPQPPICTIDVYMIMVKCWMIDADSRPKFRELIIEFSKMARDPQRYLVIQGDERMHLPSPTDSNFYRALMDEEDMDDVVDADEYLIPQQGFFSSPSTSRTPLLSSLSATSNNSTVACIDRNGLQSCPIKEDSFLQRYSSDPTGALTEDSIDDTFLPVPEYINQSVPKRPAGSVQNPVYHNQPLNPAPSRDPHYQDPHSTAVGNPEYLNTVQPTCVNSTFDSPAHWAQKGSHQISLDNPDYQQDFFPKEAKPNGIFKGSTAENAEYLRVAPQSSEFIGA
- Experiment summary: Cell proliferation inhibition experiment (CellTiter-Glo), Ba/F3 L858R/T790M/C797S
- Assay type: cell-based
- Details: 72 hours, Cell Titer-Glo, read-out: Ba/F3 (L858R/T790M/C797S) IC50
Property label: GI50 (µM)

(a) COc1ccc(-c2cnoc2)cc1Nc1ncc(Br)c(Nc2ccc3nccnc3c2P(C)(C)=O)n1
(b) COc1cc(N2CCC(N3CC[C@H](OC)[C@H](F)C3)CC2)c(-c2cnn(C)c2)cc1Nc1ncc(Br)c(Nc2ccc3nccnc3c2P(C)(C)=O)n1
(c) COc1cc(N2CCN(CCN3CCOCC3)CC2)c(-c2cnn(C)c2)cc1Nc1ncc(Br)c(Nc2ccc3nccnc3c2P(C)(C)=O)n1
**Query** Order the records so the highest GI50 appears first and the lowest last. # list labels per requested ordering
**Result** a, c, b
